Test system: SF-295 CNS
assay.overview: NCI tumour cell line growth inhibition, 48 h
readout: TGI

compound: COC1/C=C/C(C)C(O)CC(O)/C=C/C(C)C(C(C)C(OC)C(C)CCC(=O)C(C)C(C/C=C/N(C)C=O)OC)OC(=O)/C=C/C=C(\C)CC(OC)CC2=CC(=O)O[C@@H](C(C)C(OC)C1)[C@H]2O (some centres undefined)
TGI: < 0.005 µM

// query Name the recorded TGI for `Clc1ccc2c(NCCCCCCNc3ccnc4cc(Cl)ccc34)ccnc2c1` .
// result 5.56 µM

// query TGI lookup needed for `Nc1c(C(=O)c2ccc(Cl)c(Cl)c2)[nH]c(NCc2ccccc2)c1C(=S)Nc1ccccc1` , thanks.
// result 15 µM

// query Item CCN1CC2(C)CCC(OC)C34C5CC6CCC(O)(C5C(=O)O6)C(C(O)C23)C14 (centres undefined) has what recorded TGI?
// result > 100 µM

// query I would be grateful if you could share the reported TGI for `COc1ccc2[nH]c(C(=O)N3CCN(C(=O)OCc4ccc5c(Cl)cc(Cl)c(O)c5n4)CC3)cc2c1` .
// result 13.8 µM

// query # input compound: `O=CCCCCCOCc1ccccc1` ; wanted: its TGI
// result > 60.4 µM

* * *

Tested on: UACC-62 melanoma
assay.overview: NCI tumour cell line growth inhibition, 48 h; in the data active = GI50 below about 0.43 µM; inactive = the rest
Field 'call' accepts active, inactive

compound: NC(N)=N/N=C\c1ccc(OCc2ccccc2)cc1
group: inactive
//
compound: O=c1c(Cc2ccc3c(c2)OCO3)nnc2sc(-c3cc(F)c(Cl)cc3Cl)nn12
group: inactive
//
compound: CCCCCCCC(=O)OCC/C=C/C1OC1C1OC(=O)/C=C\C=C\C(=O)N(C(C)=O)C(=O)/C=C(/C)CCC2OC2C1OC(=O)NC(C)=O (stereo unspecified)
group: inactive
//
compound: COc1ccc2[nH]c(C(=O)N3CCN(C(=O)OCc4ccc5c(Cl)cc(Cl)c(O)c5n4)CC3)cc2c1
group: inactive
//
compound: CN(C)CCC(=O)Nc1ccc(-n2cc(-c3cccc(NC(=S)Nc4cccc(-c5cn(-c6ccc(NC(=O)CCN(C)C)cc6)nn5)c4)c3)nn2)cc1
group: inactive
//
compound: COc1cc2c(/C=C3\C(=O)Nc4ccccc43)c[nH]c2cc1C
group: active
//
compound: O=C(Nc1sc2c(c1C(=O)O)CCCC2)c1ccco1
group: inactive
//
compound: CC(C)(C)C[C@H]1N[C@@H](C(=O)NC2CCC(O)CC2)[C@H](c2cccc(Cl)c2F)[C@@]12C(=O)Nc1cc(Cl)ccc12 (stereo partly specified)
group: active
//
compound: COc1ccc(-n2cc(-c3ccc(OC)c(OC)c3)[nH]c2=O)cc1
group: inactive
//
compound: Cc1ccc(/C(=N/Nc2ccc([N+](=O)[O-])cc2)Sc2cc(Cl)c(C)cc2S(N)(=O)=O)cc1
group: inactive

// query I'd appreciate the recorded outcome for `Nc1cc2c3c(cccc3c1)C(=O)N(CCN1CCCC1)C2=O` from this test.
// result inactive

// query What outcome does the record of this test show for `CCOC(=O)NC(=S)N(CC(=O)c1cc(OC)c(OC)c(OC)c1)c1ccc(Cl)cc1` ?
// result inactive

// query Which outcome was assigned to COc1cc(C2CC(c3ccc(Nc4nc(NCCO)nc(NCCO)n4)cc3)=NN2c2cc(Cl)cc(Cl)c2)cc(OC)c1OC (stereo unspecified) in this test?
// result inactive

// query // param item: `CCC[CH2][Sn-]([CH2]CCC)([CH2]CCC)[O]C(=O)C(C)C` ; yields the recorded call
// result active

// query Status in this test for `COc1cc2c(cc1C)NC(=O)/C2=C/c1ccnc2ccccc12` ?
// result inactive

// query Would you mind telling me which call this test gave CCCCNC(c1ccc(Cl)cc1)C(O)c1ccc(Cl)cc1 (stereo unspecified) ?
// result inactive

* * *

System: SF-539 CNS
assay.overview: NCI tumour cell line growth inhibition, 48 h
The reader will find reported TGI values listed item by item below.
I only need the number, in µM, no unit after it.

compound: COc1cc(C2CC(c3ccc(Nc4nc(NCCO)nc(NCCO)n4)cc3)=NN2c2cc(Cl)cc(Cl)c2)cc(OC)c1OC (stereo not given)
value: 2.57

compound: Cc1ccc(/C(=N/Nc2ccc([N+](=O)[O-])cc2)Sc2cc(Cl)c(C)cc2S(N)(=O)=O)cc1
value: 2.97

compound: Clc1ccc2c(c1)N(CCCN1CCCC13CCCCC3)c1ccccc1S2
value: 33.4

# next compound below
// query Please give the measured TGI for this compound: CC1OC(OC2C(O[C@H]3CC[C@@]4(C)C(=CC[C@H]5[C@@H]6C[C@@H]7O[C@]8(CC[C@@H](C)CO8)[C@@H](C)[C@@H]7[C@@]6(C)CC[C@@H]54)C3)OC(CO)C(O)C2OC2OC(CO)C(O)C(O)C2O)C(O)C(O)C1O (stereo not given in full)
// result 5.23

* * *

Tested on: BT-549 breast
assay.overview: NCI tumour cell line growth inhibition, 48 h
readout: TGI

molecule: COc1cccc2c1C(=O)c1c(O)c3c(c(O)c1C2=O)C[C@@](O)(C(C)=O)CC3OC1CC(OC2CC(N)C(O)C(C)O2)C(O)C(C)O1 (some centres undefined)
value: > 100 µM
//
molecule: Cn1/c(=N\N=C2\C=C3CCCCC3(C)CC2)sc2ccccc21 (centres undefined)
value: > 100 µM
//
molecule: Nc1[nH]c(=O)nc2c1ncn2C1OC(CO)C(O)C1O (centres undefined)
value: > 100 µM

Now consider the entry below.
// query Provide the documented TGI with BT-549 breast as the system for `O=C1NC(=NCCc2ccc(Cl)cc2)S/C1=C\c1ccc2ncccc2c1`
// result > 25 µM

* * *

Tested on: HS 578T breast
assay.overview: NCI tumour cell line growth inhibition, 48 h
Entries and their measured TGI follow.
Please reply with the bare figure in µM and do not write the unit itself.

compound: COc1ccc(-c2ccc(C(=O)C=P(c3ccccc3)(c3ccccc3)c3ccccc3)cc2)cc1
unit: µM
TGI: 67.6

// query Quick one: TGI for COc1cc(C2CC(c3ccc(Nc4nc(NCCO)nc(NCCO)n4)cc3)=NN2c2cc(Cl)cc(Cl)c2)cc(OC)c1OC (stereo not given) ?
// result 3.34

* * *

Test system: KM12 colon
assay.overview: NCI tumour cell line growth inhibition, 48 h
Collected TGI values appear next to each entry.

Sample answers from the record:
compound: CCOc1ccc(NC(=O)/C(CC(=O)c2c[n+](=O)c3ccccc3n2[O-])=N\OCCCc2ccccc2)cc1
target.or.test.system: KM12 colon
TGI: > 100 µM
--
compound: CC(=O)C(=Cc1cn(C)c(=O)n(C)c1=O)C(C)=O
target.or.test.system: KM12 colon
TGI: 189 µM
--
compound: Cc1ccc(C2=CC(=O)c3ccccc3C2=O)n1-c1ccccc1
target.or.test.system: KM12 colon
TGI: > 100 µM
--
compound: N#CCCC(C=O)(CCC#N)CCC#N
target.or.test.system: KM12 colon
TGI: > 100 µM
--
compound: COc1cc(O)ccc1C(=S)SC
target.or.test.system: KM12 colon
TGI: > 100 µM

// query # get_value(readout='TGI', item= N=C1CCCC1C(=S)SCCC(N)=O (stereo unspecified) )
// result > 100 µM

// query What TGI value was documented for this compound, `Cn1c(COC(=O)NCCn2ccnc2)nc2c(N3CCOCC3)nc(-c3ccccc3)nc21` ?
// result 3.06 µM

* * *

Test system: UACC-257 melanoma
assay.overview: NCI tumour cell line growth inhibition, 48 h
Form field: TGI (one value per entry).
Field format: number, assumed µM, no unit text.

Below: 5 molecules and their reported TGI.
molecule: O=C1Nc2ccccc2/C1=C\c1c(Cl)n(-c2ccccc2)c2ccccc12
unit: µM
TGI: 36.5

molecule: COC1(CC[C@@H](C)COC2OC(CO)C(O)C(O)C2O)OC2C[C@H]3[C@@H]4CC[C@H]5C[C@@H](OC6OC(CO)C(OC7OC(CO)C(O)C(O)C7O)C(O)C6OC6OC(C)C(O)C(O)C6O)[C@H](O)C[C@]5(C)[C@H]4CC[C@]3(C)C2[C@@H]1C (some centres not stated)
unit: µM
TGI: 3.5

molecule: CN1CCN(C(=O)c2cn(Cc3cncn3Cc3ccc4c(c3)OCO4)cc2-c2cccc3ccccc23)CC1
unit: µM
TGI: 42.7

molecule: CN(C)CCC(=O)Nc1ccc(-n2cc(-c3cccc(NC(=S)Nc4cccc(-c5cn(-c6ccc(NC(=O)CCN(C)C)cc6)nn5)c4)c3)nn2)cc1
unit: µM
TGI: 67.4

molecule: COc1cc(CCNC2=CC(=O)c3nc[nH]c3C2=O)ccc1O
unit: µM
TGI: 34.8

// query # query: TGI of entry `CCCCCCCC/C=C/CCCCCCCC1=NC(C)(C)CN1C(C)(C)CO`
// result 3.54

// query Quick one: TGI of `COc1nc(Cl)nc(N[C@H](C)c2c3ccccc3cc3ccccc23)n1` ?
// result 30.2
